A collection of compounds and their measured IC50
- measuredTarget: squalene synthase (Rattus norvegicus, UniProt Q02769)
- Construct: incubating rat liver homogenate with various concentrations of the test compound
- Sequence (Q02769 whole entry): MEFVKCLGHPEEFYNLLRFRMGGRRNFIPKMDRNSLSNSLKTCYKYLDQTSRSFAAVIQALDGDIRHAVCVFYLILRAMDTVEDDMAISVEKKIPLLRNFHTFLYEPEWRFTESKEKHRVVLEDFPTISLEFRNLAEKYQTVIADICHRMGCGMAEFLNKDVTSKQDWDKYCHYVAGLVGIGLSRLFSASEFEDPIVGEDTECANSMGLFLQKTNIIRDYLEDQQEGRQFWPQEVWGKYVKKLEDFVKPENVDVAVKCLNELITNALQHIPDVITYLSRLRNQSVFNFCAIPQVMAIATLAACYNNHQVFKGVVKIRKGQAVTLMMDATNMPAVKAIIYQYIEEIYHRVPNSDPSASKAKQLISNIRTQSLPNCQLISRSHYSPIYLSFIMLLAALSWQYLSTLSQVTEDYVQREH
- experimentDescription: Inhibition of squalene synthase in rat liver homogenate
- assayContext: [2-14C] farnesylpyrophosphate as substrate, 30 minute assay, read-out: IC50 (concentration of compound giving 50% inhibition of [14C] squalene production)

Use the examples below as a reference point.
C=C(CC[C@]12O[C@H](C(=O)O)[C@@](O)(C(=O)O)[C@](C(=O)O)(O1)[C@H](OC(=O)/C=C/C(C)(O)CC(C)CC)[C@H]2O)[C@@H](O)[C@H](C)Cc1ccccc1 (some centres unmarked) [Compound C1] :: < 100 nM
C=C(CC[C@@]12O[C@H](C(=O)O)[C@@](O)(C(=O)O)[C@@](C(=O)O)(C[C@H]1O)O2)[C@@H](OC(C)=O)[C@H](C)Cc1ccccc1 [Compound V] :: < 100 nM
C=C(CC[C@]12O[C@H](C(=O)O)[C@@](O)(C(=O)O)[C@](C(=O)O)(O1)[C@H](OC(=O)/C=C/C(C)=C/C(C)CC)[C@H]2O)[C@@H](OC(C)=O)[C@H](C)Cc1ccccc1 (some centres unmarked) [Compound H] :: < 100 nM
C=C(CC[C@]12O[C@H](C(=O)OC)[C@@](O)(C(=O)O)[C@](C(=O)O)(O1)[C@H](OC(=O)/C=C/[C@@H](C)C[C@@H](C)CC)[C@H]2O)[C@@H](O)[C@H](C)Cc1ccccc1 [Compound E] :: < 100 nM

Now examine the next entry.
(Q) For C=C(CC[C@]12O[C@H](C(=O)O)[C@@](O)(C(=O)O)[C@](C(=O)O)(O1)[C@H](OC(=O)CC(O)C(C)CC(C)CC)[C@H]2O)[C@@H](OC(C)=O)[C@H](C)Cc1ccccc1 (some centres unmarked) [Compound I] , what is its reported IC50?
(A) < 100 nM
